# Tested on: UACC-257 melanoma
# method: NCI tumour cell line growth inhibition, 48 h
Exercise: for every item that follows, state its recorded TGI.

Kindly state the measured TGI obtained for c1ccc2c(-c3nc(-c4c[nH]c5ccncc45)cs3)c[nH]c2c1 with UACC-257 melanoma. 3.43 µM

Proceed to CCOP(=O)(OCC)/C(=C/c1cccs1)CC(C)=O > 100 µM

Proceed to CC(C)C(C/C=C1\CC(CO)(COC(=O)C2CCCCC2)OC1=O)C(C)C (stereo not given) 84.1 µM

Proceed to C/C(=N\Nc1nc2ccccc2n1C)c1cc2ccccc2cn1 7.26 µM

Proceed to O=S(=O)(NCn1ccc2ccccc21)c1ccccc1 > 100 µM

Proceed to Cc1cc(OC(=O)NCn2cc(-c3ccccc3)nn2)ccc1Cl > 100 µM

Proceed to C#CCn1c(=O)c(C)cn(/C(=C\C(=O)OCC)C(=O)OCC)c1=O 28.2 µM

Proceed to CC(C)(C)CC(C)(C)c1cc(O)c(O)c(CN2CCCCC2)c1 26.1 µM

Proceed to C1CC[N-]CC1.CC(=N\O)/C(C)=N/O.CC(=N\O)/C(C)=N/O.OC1[CH-]CCCC1.[Co+2] > 100 µM

Proceed to O=[N+]([O-])c1cccc(N=Nc2c(O)c(S(=O)(=O)O)cc3cc(S(=O)(=O)O)ccc23)c1 > 100 µM

====

Exercise: for every item that follows, state its recorded log10 of TGI.
# Test system: MOLT-4 leukemia
# method: NCI tumour cell line growth inhibition, 48 h
Short version: log10 scale, TGI, µM.

Kindly state the measured log10 of TGI obtained for O=C1/C(=C/c2ccccc2)CN(C(=O)CCN2CCCC2)C/C1=C\c1ccccc1 with MOLT-4 leukemia. 0.23

Proceed to Cc1ccc(S(=O)(=O)c2nc(-c3ccccc3)oc2S(C)=O)cc1 (stereo unspecified) 0.74

Proceed to COC(=O)COc1ccc(/C=C2/N=C(c3ccccc3)N(c3c(C)n(C)n(-c4ccccc4)c3=O)C2=O)cc1 1.78

Proceed to CCOC(=O)N1CCc2cc(OC)c(OC)cc2/C1=C\c1ccc(OC)c(OC)c1 1.96

Proceed to CC1=Cc2ccc(C)cc2C(=O)C1=O 0.79

Proceed to O=C1c2c(O)cccc2-c2nn(CCNCCO)c3ccc(NCCNCCO)c1c23 -1.07

Proceed to O=C(c1cccs1)N1CCN(C(=O)c2cccs2)C1=S 0.91

Proceed to C[C@]12CC[C@H](O)CC1=CC[C@@H]1C2CC[C@]2(C)Nc3c(cnn3-c3ccccc3)CC12 (stereo partly specified) 0.71

====

# System: NCI-H522 lung
# method: NCI tumour cell line growth inhibition, 48 h
Use 5 µM as the dividing line for TGI, with the line itself on the Criterion met side and lower values as Criterion not met.

Hello, I need to know if CC1(C)CC2(CC(C)(C)N1O)NC(=O)OC2=O has measured TGI not below 5 µM. Thanks! Criterion met

Proceed to COc1ccc(Nc2ccc3ccccc3c2-c2c(O)ccc3ccccc23)cc1 Criterion met

Proceed to COc1cc(C)c(C2NC(=O)c3ccccc3N2)cc1C (stereo unspecified) Criterion not met

Proceed to C#Cc1nc2ccccc2c(=O)[nH]1 Criterion not met

Proceed to COc1cc(C2c3cc4c(cc3C3OC[C@@H]2C3CO)OCO4)cc(OC)c1OC (stereo partly specified) Criterion met

Hello, the source for this data is PubChem BioAssay (NCI), in case you need it.
